compounds and their reported growth inhibition
- assay.overview: NCI Yeast Anticancer Drug Screen. Data for the mlh1 rad18 strain (AID 175)
- reported.conditions: S. cerevisiae mlh1 rad18 strain growth inhibition; at 50.0 µM; hits give high values
The panel holds about 79,000 compounds, 15% with a hit somewhere; the sample as a whole holds those more often. Activity calls are given as the source filed them. Cut-off read from the data, not from the text of the source: active = growth inhibition above about 70%; inactive = the rest.

- compound: "CCCCCCCCCCCCCCCC[N+](C)(C)c1ccccc1"
  growth inhibition: "92.2% (active)"
- compound: "COc1cc2c(cc1C(C)C)CCC1C(C)(C#N)CCCC21C (configuration not stated)"
  growth inhibition: "88.8% (active)"
- compound: "O=C1C(=O)c2ccccc2C(O)=C1C(c1ccccc1)c1ccccc1"
  growth inhibition: "62% (inactive)"
- compound: "Nc1ncc(C(=O)c2ccccc2)cc1[N+](=O)[O-]"
  growth inhibition: "-0.8% (inactive)"
- compound: "N#Cc1c2c(c(N=[N+]=[N-])n3c1nc1ccccc13)CCCC2"
  growth inhibition: "89.7% (active)"
- compound: "COC(=O)C(=O)C(C(=O)Nc1cccc(C)c1C)C1Sc2ccccc2NC1=O (configuration not stated)"
  growth inhibition: "81.5% (active)"
- compound: "CCOC(=O)Cc1[nH]c(C(=O)c2ccccc2)cc1C(=O)c1ccccc1"
  growth inhibition: "-42.9% (inactive)"
- compound: "O=S(=O)(CC(Br)Br)c1ccccc1"
  growth inhibition: "30.9% (inactive)"
- compound: "COc1ccccc1/C=C1\\SC(=S)N(/C=C2\\C(=O)Oc3ccccc3C2=O)C1=O"
  growth inhibition: "53.7% (inactive)"
- compound: "CC(=O)Sc1ccccc1C(=O)NCc1ccc(Cl)cc1"
  growth inhibition: "98.7% (active)"
- compound: "CCOC1(c2ccccc2)c2ccccc2S(=O)(=O)N1C (configuration not stated)"
  growth inhibition: "9% (inactive)"
- compound: "NS(=O)(=O)c1ccc(-n2cccc2)cc1"
  growth inhibition: "7.7% (inactive)"
- compound: "O=C(c1c(F)c(F)c(F)c(F)c1F)N1CCN(C(=O)c2c(F)c(F)c(F)c(F)c2F)C1=S"
  growth inhibition: "91.2% (active)"
- compound: "Cc1cccc(Cl)c1NC(=S)Nc1cccc(C(F)(F)F)c1"
  growth inhibition: "86.2% (active)"
- compound: "CCOC(=O)C1=NNC(C(=O)c2ccccc2)C1c1ccccc1 (configuration not stated)"
  growth inhibition: "68.8% (inactive)"
- compound: "NC(=O)c1cccn1Cc1ccccc1SSc1ccccc1Cn1cccc1C(N)=O"
  growth inhibition: "94.4% (active)"
- compound: "CCN(CC)CCOC(=O)C1CCCCC1C(=O)C1CCCCC1 (configuration not stated)"
  growth inhibition: "11.7% (inactive)"
- compound: "OCCC1CCN(CC/C=C2/c3ccc(F)cc3Sc3ccc(C(F)(F)F)cc32)CC1"
  growth inhibition: "88.2% (active)"
- compound: "CC1/C=C/C=C/CC/C=C/C=C/C=C/C=C/C(OC2OC(C)C(O)C(N)C2O)CC2OC(CC(O)C(O)CCC(O)CC(O)CC(O)CC(=O)OC(C)C(C)C1O)CC(O)C2C(=O)O (configuration not stated)"
  growth inhibition: "98.5% (active)"
- compound: "Cn1cnc([N+](=O)[O-])c1Sc1ccc(Cl)cc1"
  growth inhibition: "90.3% (active)"
- compound: "CCCCCCCCCCCCCC(=O)CC(=O)c1c(O)cccc1O"
  growth inhibition: "17.1% (inactive)"
- compound: "O=C1C=CC(=O)c2nc3ccccc3nc21"
  growth inhibition: "91% (active)"

* * *

- assay.overview: NCI Yeast Anticancer Drug Screen. Data for the mec2-1 strain (AID 157)
- reported.conditions: S. cerevisiae mec2-1 strain, at 5.0 µM (retest, dose inferred, filed as 0.5), hits give high values
The panel holds about 79,000 compounds, 15% with a hit somewhere; the sample as a whole holds those more often.
Catalogue of compounds with associated growth inhibition

- compound: "CNc1ccc(N=O)cc1"
  growth inhibition [%]: 27
- compound: "COc1c(O)cc(C=O)cc1[N+](=O)[O-]"
  growth inhibition [%]: 1
- compound: "CCOC(=O)C[P+](c1ccc(C)cc1)(c1ccc(C)cc1)c1ccc(C)cc1"
  growth inhibition [%]: 17
- compound: "CCCCCCCCCCCc1ccn[nH]1"
  growth inhibition [%]: 3
- compound: "CC(C)NC(=O)CN1C(=O)NC(C)(c2ccccc2)C1=O (configuration not stated)"
  growth inhibition [%]: 6
- compound: "O=C1c2ccccc2C(O)(c2ccccc2)c2c(Cl)cccc21 (configuration not stated)"
  growth inhibition [%]: -6
- compound: "CC1(c2ccc(Cl)cc2)OC(=O)C(=Cc2ccc([N+](=O)[O-])s2)C(=O)O1 (configuration not stated)"
  growth inhibition [%]: 15
- compound: "Cc1ccc(S(=O)(=O)CC2COC(CS(=O)(=O)c3ccc(C)cc3)CO2)cc1 (configuration not stated)"
  growth inhibition [%]: 1
- compound: "CC(=N/NC(=S)NCC(C)C)/C(C)=N\\Nc1ccc(Cl)cc1"
  growth inhibition [%]: -1
- compound: "CCC1(C)C(C#N)(C#N)C1(C#N)C#N"
  growth inhibition [%]: -36
- compound: "CCCCCCCCCCCCNC(=O)C[n+]1cccc(C(=O)N(C)C)c1"
  growth inhibition [%]: -24
- compound: "O=[N+]([O-])c1cc(Cl)cc2c1nc(NCCO)c1ccccc12"
  growth inhibition [%]: 26

* * *

Reported growth inhibition is given for each of the following compounds.
- assay.overview: NCI Yeast Anticancer Drug Screen. Data for the mec2-1 strain (AID 157)
- reported.conditions: S. cerevisiae mec2-1 strain, at 5.0 µM (retest, dose inferred, filed as 0.5), hits give high values
The panel holds about 79,000 compounds, 15% with a hit somewhere; the sample as a whole holds those more often. The source made the active and inactive calls. No stated cut-off is given here; in the data, active means growth inhibition above about 70%; inactive means the rest.

- compound: "CCOC(=O)Cc1[nH]c(C(=O)c2ccccc2)cc1C(=O)c1ccccc1"
  growth inhibition: "11% (inactive)"
- compound: "COc1ccc2ccc3c(c2c1)CCC(C(=O)O)C3CC(=O)O (stereo unspecified)"
  growth inhibition: "-17% (inactive)"
- compound: "CCCCOC(=O)c1ccc(O)c(OC)c1"
  growth inhibition: "-10% (inactive)"
- compound: "COc1ccc(-c2cc3ccccc3c(=O)n2Cc2ccccc2)cc1"
  growth inhibition: "11% (inactive)"
- compound: "Cc1cccc(Cl)c1NC(=O)/C=C/c1ccccc1"
  growth inhibition: "44% (inactive)"
- compound: "O=C(CCCCCCCCCCc1ccccc1)c1ccc(Cl)cc1"
  growth inhibition: "5% (inactive)"

* * *

- assay.overview: NCI Yeast Anticancer Drug Screen. Data for the mlh1 rad18 strain (AID 175)
- reported.conditions: S. cerevisiae mlh1 rad18 strain growth inhibition; at 5.0 µM (retest, dose inferred, filed as 0.5); hits give high values
Compounds without any hit were thinned out: in the full panel of roughly 79,000, 15% have a hit.
The compounds listed here are annotated with their growth inhibition.
measure: growth inhibition (%)

- compound: "CCCCCCCCCCCCCCCCCCNCCCCCCCCCCCCCCCC"
  measure: "growth inhibition"
  readout.units: "%"
  value.measured: 4
- compound: "CN(C)CCC(=O)c1ccc2c(ccc3ccccc32)c1"
  measure: "growth inhibition"
  readout.units: "%"
  value.measured: 0
- compound: "CCCCCCCCCCCCOC(=O)CC1CC(C(C)=O)C1(C)C (stereo not drawn)"
  measure: "growth inhibition"
  readout.units: "%"
  value.measured: 25

* * *

- assay.overview: NCI Yeast Anticancer Drug Screen. Data for the cln2 rad14 strain (AID 165);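 note: 0% = growth equal to vehicle treated cultures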
- reported.conditions: S. cerevisiae cln2 rad14 strain, at 50.0 µM (retest, dose inferred, filed as 5.0), hits give high values
This is part of a sample that, as a whole, favours compounds with a hit. Of some 79,000 tested, about 15% had one in any assay.
Criterion: growth inhibition meeting or surpassing 40%. Met: criterion met. Not met: criterion not met.

- molecule: "C/C(=N/NC(N)=S)C(CN(C)C)C(C1=C(O)c2ccccc2OC1)c1ccccc1 (stereo not given)"
  label.value: "criterion not met"
- molecule: "Cc1cccc2c1Oc1ccccc1C2N1C(=O)/C(=C/c2cccs2)SC1=S (stereo not given)"
  label.value: "criterion not met"
- molecule: "C=CC(=O)N1C/C(=C\\c2ccccc2)C(=O)/C(=C/c2ccccc2)C1"
  label.value: "criterion met"
- molecule: "CC(=O)Oc1cccc2c1C(=O)C(Br)(Br)CCC2"
  label.value: "criterion met"
- molecule: "CC(C)Sc1nc(NC(=O)N(CCCl)N=O)cc(=O)[nH]1"
  label.value: "criterion not met"
- molecule: "CCOC(=O)C(/C=N\\C(=S)Nc1ccc(Cl)c(Cl)c1)=C(/O)c1ccccc1"
  label.value: "criterion met"
- molecule: "O=C1C(CN2CCCC2)C(O)=C(c2ccccc2)N1c1ccccc1 (stereo not given)"
  label.value: "criterion not met"
- molecule: "CCCC(CC)c1cc(O)c(O)cc1C(CC)CCC (stereo not given)"
  label.value: "criterion met"
- molecule: "CCCOC(=O)C(Br)C(Br)C(=O)OCCC (stereo not given)"
  label.value: "criterion met"
- molecule: "OCC(O)C(O)C(O)/C=N\\Nc1ccccc1 (stereo not given)"
  label.value: "criterion not met"
- molecule: "COc1ccccc1NC(=O)CSC(N)=O"
  label.value: "criterion not met"
- molecule: "CCN(CC)CCCC(C)Nc1cc(C)nc2c1ccc1c2ccc2c(NC(C)CCCN(CC)CC)cc(C)nc21 (stereo not given)"
  label.value: "criterion not met"
- molecule: "Cc1ccc(NC(=S)SCc2ccc3c(c2)OCO3)cc1Br"
  label.value: "criterion met"
- molecule: "CCCCN(CCC(=O)O)c1ccc(/C=C\\c2ccnc3ccccc23)cc1"
  label.value: "criterion met"
- molecule: "Oc1ccc(N=Nc2cc(Cl)ccc2Cl)cc1"
  label.value: "criterion met"
- molecule: "Clc1ccc(-c2nnn3ccccc23)cc1"
  label.value: "criterion not met"
- molecule: "Cn1nc2c(c(Cl)c1=O)Nc1ccccc1O2"
  label.value: "criterion not met"
- molecule: "Cc1c(-c2ccc(C(=N)N)cc2)oc(-c2ccc(C(=N)N)cc2)c1C"
  label.value: "criterion met"
- molecule: "Cc1ccc(NC(=O)CCC(=O)CC(=O)C(C)(C)C)cc1C"
  label.value: "criterion not met"
- molecule: "CCCCOC(=O)C#CC(=O)OCCCC"
  label.value: "criterion not met"
- molecule: "FC(F)(F)c1ccccc1NC(=S)SCc1ccco1"
  label.value: "criterion not met"
- molecule: "C/C(CCn1[nH]c(=O)ccc1=O)=N\\NS(=O)(=O)c1ccc(C)cc1"
  label.value: "criterion not met"
- molecule: "CCCCCCCCN(CCCCCCCC)Cc1ccc(Br)cc1"
  label.value: "criterion met"
- molecule: "COc1cc(C(c2ccccc2)c2ccccc2)c2ccccc2c1O"
  label.value: "criterion met"
- molecule: "Cc1ccc(S(=O)(=O)N/N=C(\\C=C\\c2ccccc2)c2ccccc2)cc1"
  label.value: "criterion not met"
